# SYSTEM: hGLP-1R (Homo sapiens, UniProt P43220)
# Sequence (P43220 24-463): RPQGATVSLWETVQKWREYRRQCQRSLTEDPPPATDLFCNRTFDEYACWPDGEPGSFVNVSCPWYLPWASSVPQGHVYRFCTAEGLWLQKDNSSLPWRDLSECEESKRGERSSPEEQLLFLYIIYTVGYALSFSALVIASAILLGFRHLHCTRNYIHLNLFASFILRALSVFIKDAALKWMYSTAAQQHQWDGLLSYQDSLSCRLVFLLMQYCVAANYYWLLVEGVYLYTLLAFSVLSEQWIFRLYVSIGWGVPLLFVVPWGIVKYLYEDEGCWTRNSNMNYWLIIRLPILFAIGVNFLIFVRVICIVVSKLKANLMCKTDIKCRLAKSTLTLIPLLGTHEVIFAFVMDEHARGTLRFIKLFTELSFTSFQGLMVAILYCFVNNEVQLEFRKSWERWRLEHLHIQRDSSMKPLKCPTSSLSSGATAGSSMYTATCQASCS
# PROTOCOL: cell-based or functional assay
PARAMETER MEASURED: Relative cAMP EC50 (nM)
All answers are understood in nM, so give the number only.

Examples with answers:
- YXQGTXTSDXXILLDXKAQXXFIEYLIEGGPSSGEPPPEGAEE (non-natural residues; Lys acylated C18 diacid; C-terminal amide; synthetic construct; SITE 2: note = 2-Aminoisobutyric Acid; SITE 6: note = alpha-methyl-2-fluoro-L-phenylalanine; SITE 10: note = 3-(4-Pyridyl)-L-alanine; SITE 11: note = alpha-methyl-L-serine; SITE 16: note = L-ornithine; SITE 17: note = Lysine is chemically modified through conjugation of the epsi) [Example 604]: 0.705
- YXQGTFTSDFSKXLDKKAQXAFIEWLIEGGPSSGAPPPSEG (Aib, αMeL; lysine acylated; C-terminal amide; synthetic construct; SITE 2: note = 2-Aminoisobutyric Acid; SITE 13: note = alpha-methyl-leucine; SITE 17: note = Lysine is chemically modified through conjugation of the epsilon-amino group of the Lysine side chain with (2-[2-(2-Amino-ethoxy)-ethoxy]-acetyl)-(gamma-Glu)-CO-(CH2) 18-CO2H; SITE 20: n) [Example 40]: 0.693
- YXQGTFTSDFSQXLDXKAQXAFIEYLLEAGPSSGAPPPSGSEEE (not fully specified; synthetic construct; SITE 2: note = 2-Aminoisobutyric Acid; SITE 13: note = alpha-methyl-leucine; SITE 16: note = L-ornithine; SITE 17: note = Lysine is chemically modified through conjugation of the epsilon-amino group of the Lysine side chain with (gamma-Glu)2-CO-(CH2)16-CO2H; SITE 20: note = 2-Am) [Example 1039]: 1.65

Query :: Which Relative cAMP EC50 value is on record for YXQGTXTSDXXIXLDXKAQXEFIEXLIEGGPSSXAPPPEGE (non-natural residues; AEEA-γGlu-C18 diacid on Lys; C-terminal amide; synthetic construct; SITE 2: note = 2-Aminoisobutyric Acid; SITE 6: note = alpha-methyl-2-fluoro-L-phenylalanine; SITE 10: note = 3-(4-Pyridyl)-L-alanine; SITE 11: note = alpha-methyl-L-serine; SITE 13: note = alpha-methyl-leucine; SITE 16: note = L-ornithine; SITE 17: note = Lysine is chemically mo) [Example 1192] ?
Result :: 0.499

Query :: Follow-up entry: YXQGTFTSDXSXXLDKKAQXAFIEXLIEXGPSSGEPPPSGSE (non-natural residues; Lys acylated AEEA-(γGlu)2-C18 diacid; C-terminal amide; synthetic construct; SITE 2: note = 2-Aminoisobutyric Acid; SITE 10: note = 3-(4-Pyridyl)-L-alanine; SITE 12: note = L-ornithine; SITE 13: note = alpha-methyl-leucine; SITE 17: note = Lysine is chemically modified through conjugation of the epsilon-amino group of the Lysine side chain with (2-[2-(2-) [Example 988]
Result :: 9.5

Query :: Try YXQGTFTSDFSKXLDKKAQXAFIEYLLEGGPSSGAPPPXEG (synthetic construct; SITE 2: note = 2-Aminoisobutyric Acid; SITE 13: note = alpha-methyl-leucine; SITE 17: note = Lysine is chemically modified through conjugation of the epsilon-amino group of the Lysine side chain with (2-[2-(2-Amino-ethoxy)-ethoxy]-acetyl)-(gamma-Glu)-CO-(CH2) 18-CO2H; SITE 20: n) [Example 52] next.
Result :: 5.18

Query :: Thanks! And YXQGTFTSDXSXXLDKKAQXAFIEYLIAGGPSSGEPPPSGTE (synthetic construct; SITE 2: note = 2-Aminoisobutyric Acid; SITE 10: note = 3-(4-Pyridyl)-L-alanine; SITE 12: note = L-ornithine; SITE 13: note = alpha-methyl-leucine; SITE 17: note = Lysine is chemically modified through conjugation of the epsilon-amino group of the Lysine side chain with (gamma-Gl)) [Example 980] ?
Result :: 2.26
